Each record here notes measured activity at 20 min, 30 µM.
- Target Or System: CYP3A4 (Homo sapiens, UniProt P08684)
- Sequence (P08684 whole entry): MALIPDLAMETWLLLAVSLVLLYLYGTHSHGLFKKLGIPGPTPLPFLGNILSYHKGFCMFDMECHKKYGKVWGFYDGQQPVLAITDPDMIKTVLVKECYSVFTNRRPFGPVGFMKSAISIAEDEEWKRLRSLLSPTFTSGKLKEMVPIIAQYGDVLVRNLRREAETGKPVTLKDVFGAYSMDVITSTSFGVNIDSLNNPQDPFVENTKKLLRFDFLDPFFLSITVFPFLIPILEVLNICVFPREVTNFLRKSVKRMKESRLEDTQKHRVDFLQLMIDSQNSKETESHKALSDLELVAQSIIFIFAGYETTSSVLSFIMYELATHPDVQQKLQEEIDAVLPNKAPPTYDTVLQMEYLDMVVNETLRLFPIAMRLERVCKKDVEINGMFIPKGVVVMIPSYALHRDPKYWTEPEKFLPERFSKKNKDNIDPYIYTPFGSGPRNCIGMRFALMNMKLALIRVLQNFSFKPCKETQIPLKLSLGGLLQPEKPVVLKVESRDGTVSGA
- Procedure Details: Time-dependent inhibition of CYP3A4 in human liver microsomes assessed as reduction in testosterone to 6beta-hydroxytestosterone conversion by measuring remaining activity at 30 uM preincubated for 60 mins followed by testosterone addition measured after 20 mins in presence of NADPH by UPLC analysis relative to control
- Assay type: ADME
- Experimental Context: probe testosterone (6beta-hydroxylation), read-out: Activity
Field format: number, assumed %, no unit text.

Answered cases to consult:
Molecule	Recorded Number
Cn1cc(-c2c(F)cncc2/C=C/C(=O)Nc2ccc(CN3CCOCC3)cc2)cn1	60
Cn1cc(-c2ccncc2/C=C/C(=O)Nc2ccc(CN3CC(F)(F)C3)cc2)cn1	98

Give activity at 20 min, 30 µM for O=C(/C=C/c1cnccc1-c1cnn(C2CC2)c1)Nc1ccc(CN2CC(F)(F)C2)cc1 tested on CYP3A4 (Homo sapiens, UniProt P08684).
99

Give activity at 20 min, 30 µM for Cn1cc(-c2ccncc2/C=C/C(=O)Nc2ccc(CN3CC4CC3CO4)cc2)cn1 (stereo not given) tested on CYP3A4 (Homo sapiens, UniProt P08684).
100

Give activity at 20 min, 30 µM for O=C(/C=C/c1cnccc1-c1cnn(C2CC2)c1)Nc1ccc(CN2CC3CC(C2)O3)cc1 tested on CYP3A4 (Homo sapiens, UniProt P08684).
108

Give activity at 20 min, 30 µM for Cn1cc(-c2ccncc2/C=C/C(=O)Nc2ccc(CN3CCC(F)(F)C3)cc2)cn1 tested on CYP3A4 (Homo sapiens, UniProt P08684).
69

Give activity at 20 min, 30 µM for Cn1cc(-c2ccncc2/C=C/C(=O)Nc2ccc(CN3CCOCC3)cc2)cn1 tested on CYP3A4 (Homo sapiens, UniProt P08684).
81

Give activity at 20 min, 30 µM for O=C(/C=C/c1cnccc1-c1cnn(C2CC2)c1)Nc1ccc(CN2CC3CC2CO3)cc1 (stereo not given) tested on CYP3A4 (Homo sapiens, UniProt P08684).
101

Give activity at 20 min, 30 µM for Cn1cc(-c2ccncc2/C=C/C(=O)Nc2ccc(CN3C4CCC3COC4)cc2)cn1 tested on CYP3A4 (Homo sapiens, UniProt P08684).
99

Give activity at 20 min, 30 µM for Cn1cc(-c2ccncc2/C=C/C(=O)Nc2ccc3c(c2)CCN(CC(F)(F)F)C3)cn1 tested on CYP3A4 (Homo sapiens, UniProt P08684).
91

###

Each record here notes measured MRT.
- Procedure Details: MRT in mouse at 1 mg/kg, po administered as cassette dose measured up to 8 hrs by LC/MS/MS analysis
- Assay type: ADME, organism-based
- Experimental Context: in vivo
Field format: number, assumed h, no unit text.

Answered cases to consult:
Query Smiles	Unit Info	MRT
O=C(/C=C/c1cnccc1-c1cnn(Cc2ccccc2)c1)Nc1ccc(CN2CCOCC2)cc1	h	1.2
O=C(/C=C/c1cnccc1-c1cnn(C2CC2)c1)Nc1ccc(CN2CC(F)(F)C2)cc1	h	1.6
O=C(/C=C/c1cnccc1-c1cnn(C2CC2)c1)Nc1ccc(CN2CCOCC2)cc1	h	1.5

# evaluate next
State its MRT for this compound: Cn1cc(-c2ccncc2/C=C/C(=O)Nc2ccc(CN3CCOCC3)cc2)cn1
1.5
